- TARGET OF ASSAY: T1, RecE564 del858-866 (Escherichia coli K12, UniProt P15032 564-857, del858-866)
- T1 sequence: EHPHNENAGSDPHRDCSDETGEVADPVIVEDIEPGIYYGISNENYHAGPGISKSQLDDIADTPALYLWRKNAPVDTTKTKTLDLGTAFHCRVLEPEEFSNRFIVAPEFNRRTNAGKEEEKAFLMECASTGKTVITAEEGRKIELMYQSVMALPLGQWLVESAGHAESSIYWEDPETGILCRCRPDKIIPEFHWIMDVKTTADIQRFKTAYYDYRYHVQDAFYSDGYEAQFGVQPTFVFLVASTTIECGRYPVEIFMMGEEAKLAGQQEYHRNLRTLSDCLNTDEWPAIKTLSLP
- TEST: fluorescence anisotropy
READOUT NAME: Kd (nM)
Write down the numeric answer in nM and omit the unit.

Value of Kd reported for the binder F25 (dsDNA) DNA 1: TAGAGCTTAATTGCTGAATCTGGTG DNA 2: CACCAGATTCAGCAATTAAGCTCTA is 660
